target: human CYP11B2 (Homo sapiens); construct: expressed in transfected cells; assay: Inhibition of hCYP11B2 in transfected V79 cells; type: cell-based; details: hamster V79 cells expressing human CYP11B2; substrate 11-deoxycorticosterone 200 nM
Sequence (P19099 25-503): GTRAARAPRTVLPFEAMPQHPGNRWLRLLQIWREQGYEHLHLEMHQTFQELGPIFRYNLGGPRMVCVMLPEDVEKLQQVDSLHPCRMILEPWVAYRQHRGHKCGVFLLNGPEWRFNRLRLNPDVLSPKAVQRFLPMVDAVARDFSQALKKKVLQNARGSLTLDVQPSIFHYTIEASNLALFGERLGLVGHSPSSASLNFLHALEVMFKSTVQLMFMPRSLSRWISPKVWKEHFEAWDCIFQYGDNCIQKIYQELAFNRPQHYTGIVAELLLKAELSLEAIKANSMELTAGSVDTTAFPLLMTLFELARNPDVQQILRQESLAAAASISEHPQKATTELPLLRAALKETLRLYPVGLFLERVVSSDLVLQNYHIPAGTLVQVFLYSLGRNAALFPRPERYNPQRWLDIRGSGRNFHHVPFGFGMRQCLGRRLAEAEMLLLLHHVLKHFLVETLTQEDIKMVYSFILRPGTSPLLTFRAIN
// values below are reported pIC50
In plain terms, pIC50 is the concentration in mol/L turned into minus its base-10 logarithm.

// "N#Cc1ccc(S(=O)(=O)N2CCSc3c(-c4ccn5ccnc5c4)cncc32)cc1" : pIC50 value = 7.28

// "N#Cc1ccc(-c2cncc3c2ccn3S(=O)(=O)c2cccc(C#N)c2)cc1" : pIC50 value = 9.22

// "O=C(C1CN(Cc2cccc(F)c2)C1)N1CCOc2c(-c3cc4ccc(F)cc4[nH]3)cncc21" : pIC50 value = 7.05
